biological target: Catechol O-methyltransferase (Homo sapiens) (UniProt P21964); test: Confirmatory Screen for Target Class Profiling of Small Molecule Inhibitors of Methyltransferases (AID 1745852); details: MTase-Glo luminescence, SAH detection, recombinant enzyme; measured here: COMT max response; stronger effect = lower value
Sequence (P21964 whole entry, looked up): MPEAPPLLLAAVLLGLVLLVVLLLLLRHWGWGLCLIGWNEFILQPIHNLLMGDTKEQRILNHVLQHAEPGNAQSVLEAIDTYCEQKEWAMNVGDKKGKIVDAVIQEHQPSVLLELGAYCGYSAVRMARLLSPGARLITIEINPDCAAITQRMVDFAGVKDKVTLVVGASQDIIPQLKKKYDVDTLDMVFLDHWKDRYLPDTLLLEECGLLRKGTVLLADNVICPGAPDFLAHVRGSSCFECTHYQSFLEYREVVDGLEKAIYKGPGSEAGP
observable: activity (%)
Numbers only; they are read as %.

Look over these answered cases.
                                   compound  result
0  CC1(C)CC(=O)c2c(C(F)(F)F)nn(-c3ccc(C(N)=O)c(NC4CCC(OC(=O)CN)CC4)c3)c2C1 (centres undefined)    -2.7
1  O=C(c1ccc(Nc2nccc(-c3cc4ccccc4s3)n2)cc1)N1CCC(N2CCCC2)CC1   -18.2
2   OCCCNc1cc(-c2ccnc(Nc3cccc(Cl)c3)n2)ccn1   -80.2
3  Nc1ccccc1NC(=O)c1ccc(CNc2nccc(-c3cccnc3)n2)cc1     -14
4  CNC(=O)CN1CCC(Oc2cc3c(Nc4cccc(Cl)c4F)ncnc3cc2OC)CC1     -36

Turning now to a further record.
Can you share its activity? I mean this compound: Nc1ncnc2c1c(-c1cccc(OCc3ccccc3)c1)cn2C1CC(CN2CCCC2)C1 (centres undefined)
-58.1
